Where these numbers come from: patent US9296725B2

- tested.target: TYK2 (Homo sapiens, UniProt P29597)
- Construct: endogenous in cells; host or cells: Molt4 (ATCC CRL-1582) and Ramos (ATCC CRL-1596), mixed lysate 1:2
- Sequence (P29597 whole entry): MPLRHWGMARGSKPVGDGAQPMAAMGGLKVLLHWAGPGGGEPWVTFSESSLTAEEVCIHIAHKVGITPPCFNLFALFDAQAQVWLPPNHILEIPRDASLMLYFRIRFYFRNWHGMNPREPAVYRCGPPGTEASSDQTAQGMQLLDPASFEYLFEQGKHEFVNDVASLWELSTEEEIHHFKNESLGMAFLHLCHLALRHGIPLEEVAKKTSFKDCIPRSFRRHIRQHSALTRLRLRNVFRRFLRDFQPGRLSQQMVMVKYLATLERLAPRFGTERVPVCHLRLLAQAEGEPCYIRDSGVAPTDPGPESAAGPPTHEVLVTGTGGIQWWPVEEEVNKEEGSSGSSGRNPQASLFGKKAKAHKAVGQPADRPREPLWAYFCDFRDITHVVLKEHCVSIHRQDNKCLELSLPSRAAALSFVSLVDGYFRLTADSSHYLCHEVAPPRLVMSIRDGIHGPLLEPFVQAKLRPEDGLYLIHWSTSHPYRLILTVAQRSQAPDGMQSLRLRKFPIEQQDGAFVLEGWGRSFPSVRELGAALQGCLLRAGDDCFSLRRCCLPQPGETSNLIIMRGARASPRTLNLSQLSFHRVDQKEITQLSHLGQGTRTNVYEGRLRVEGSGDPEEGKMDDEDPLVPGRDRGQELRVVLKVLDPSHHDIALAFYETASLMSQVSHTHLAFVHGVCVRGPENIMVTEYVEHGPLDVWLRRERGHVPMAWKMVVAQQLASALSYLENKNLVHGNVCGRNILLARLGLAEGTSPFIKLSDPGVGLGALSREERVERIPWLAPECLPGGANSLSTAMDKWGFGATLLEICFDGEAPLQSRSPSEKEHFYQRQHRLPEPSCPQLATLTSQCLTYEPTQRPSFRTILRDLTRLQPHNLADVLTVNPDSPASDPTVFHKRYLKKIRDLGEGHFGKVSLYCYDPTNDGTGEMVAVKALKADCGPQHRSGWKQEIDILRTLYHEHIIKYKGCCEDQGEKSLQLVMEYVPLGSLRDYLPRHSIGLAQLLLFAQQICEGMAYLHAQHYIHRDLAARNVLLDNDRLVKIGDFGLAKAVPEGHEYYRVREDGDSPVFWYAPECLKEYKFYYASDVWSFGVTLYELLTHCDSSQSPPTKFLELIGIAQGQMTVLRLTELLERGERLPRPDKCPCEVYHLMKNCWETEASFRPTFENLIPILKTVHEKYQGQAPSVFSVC
- protocol: Kinobeads assay, TYK2 (competition binding in mixed Molt4/Ramos cell lysate, dot blot detection)
- condition.summary: Kinobeads assay, Molt4/Ramos lysate; read-out: TYK2 Band (Kinobeads assay potency, IC50)
parameter.measured: IC50

*Q* Which IC50 value belongs to "CN(C)C(=O)Cn1cc(Nc2ncc(Cl)c(NCc3cccc(OCC#N)c3)n2)cn1" ?
*A* 10 to 100 nM

*Q* Query: IC50; subject: "CNC(=O)Cn1cc(Nc2ncc(Cl)c(NCc3ccccc3S(=O)(=O)N(C)C)n2)cn1"
*A* 100 to 1000 nM

*Q* Recorded IC50 for "CN(C)C(=O)Cn1cc(Nc2ncc(Cl)c(NCc3cccc(CNS(C)(=O)=O)c3)n2)cn1" , please?
*A* 100 to 1000 nM

*Q* So what does the record say about IC50 for "CC(C)Oc1cccc(CNc2nc(Nc3cnn(CCO)c3)ncc2Cl)c1" ?
*A* 100 to 1000 nM

*Q* Bench note: what IC50 did "CN(C)C(=O)Cn1cc(Nc2ncc(Cl)c(NCc3c(F)ccc(F)c3F)n2)cn1" show?
*A* ≤ 10 nM

*Q* Bench note: what IC50 did "CN(C)S(=O)(=O)c1ccccc1CNc1nc(Nc2cnn(C)c2)ncc1Cl" show?
*A* 100 to 1000 nM

*Q* Which IC50 is listed for "Cn1cc(Nc2nccc(NCc3c(Cl)ccc(Cl)c3F)n2)cn1" ?
*A* 10 to 100 nM

*Q* Using the record for "COc1ccc(F)c(CNc2ccnc(Nc3cnn(CC(=O)N4CCOCC4)c3)n2)c1F" , report its IC50.
*A* ≤ 10 nM

*Q* Returns the measured IC50 for the input molecule. Input: "CNC(=O)Cn1cc(Nc2ncc(F)c(NCc3c(F)ccc(OC)c3F)n2)cn1"
*A* 10 to 100 nM

*Q* Recorded IC50 of "CNC(=O)Cn1cc(Nc2ncc(Cl)c(NCc3cc(F)cc(F)c3)n2)cn1" , please.
*A* 100 to 1000 nM

*Q* # query: IC50 of entry "Cn1cc(Nc2ncc(F)c(NCc3cccc(C#N)c3)n2)cn1"
*A* 10 to 100 nM

*Q* What does the data say about its IC50? Entry: "COC[C@H](C)NC(=O)Cn1cc(Nc2ncc(F)c(NCc3c(F)cc(F)cc3F)n2)cn1"
*A* 10 to 100 nM

*Q* Using the record for "O=C(Cn1cc(Nc2ncc(F)c(NCc3c(F)cc(F)cc3F)n2)cn1)NCC(F)(F)F" , report its IC50.
*A* 10 to 100 nM

*Q* Which IC50 value belongs to "CC(C)NC(=O)Cn1cc(Nc2nccc(NCc3c(F)cc(F)cc3F)n2)cn1" ?
*A* 10 to 100 nM

*Q* Need IC50 of "NS(=O)(=O)c1ccc(CNc2nc(Nc3cnn(CC(=O)N4CCCCC4)c3)ncc2F)cc1" , thanks.
*A* 10 to 100 nM

*Q* Can you look up the measured IC50 of "CNC(=O)Cn1cc(Nc2ncc(Cl)c(NCc3cccc(OC)c3)n2)cn1" for me?
*A* 100 to 1000 nM

*Q* Endpoint output: IC50 of "CC(C)NC(=O)Cn1cc(Nc2nccc(NCc3c(F)cccc3Cl)n2)cn1" . Value?
*A* ≤ 10 nM

*Q* For the molecule "NC(=O)Cn1cc(Nc2ncc(Cl)c(NCc3ccccc3CO)n2)cn1" , what IC50 is on record?
*A* 100 to 1000 nM

*Q* Which measured IC50 value corresponds to "Cn1cc(Nc2ncc(Cl)c(NCc3c(F)cc(F)cc3F)n2)cn1" ?
*A* 10 to 100 nM

*Q* Query: IC50; subject: "COc1ccc(F)c(CNc2ccnc(Nc3cnn(CC(=O)NCC(F)F)c3)n2)c1F"
*A* 10 to 100 nM

*Q* Record request: IC50 value, item "CN(C)C(=O)Cn1cc(Nc2ncc(Cl)c(NCc3cc(OC(F)F)ccc3F)n2)cn1"
*A* 10 to 100 nM

*Q* Tell me the measured IC50 of "CC(C)NC(=O)Cn1cc(Nc2nccc(NCc3c(F)cccc3F)n2)cn1" , please.
*A* 10 to 100 nM

*Q* Entry CC(O)Cn1cc(Nc2ncc(Cl)c(NCc3cccc(F)c3F)n2)cn1 (stereo not shown) : reported IC50 = ?
*A* 100 to 1000 nM

*Q* Query: IC50; subject: "CC1(C)COCCN1C(=O)Cn1cc(Nc2nccc(NCc3c(F)cc(F)cc3F)n2)cn1"
*A* 10 to 100 nM

*Q* What value of measured IC50 is listed for "CN(C)C(=O)Cn1cc(Nc2ncc(Cl)c(NCc3c(F)cc(F)cc3F)n2)cn1" ?
*A* 10 to 100 nM

*Q* Recorded IC50 of "COc1ccc(F)c(CNc2nc(Nc3cnn(CC(=O)N(C)C)c3)ncc2Cl)c1F" , please.
*A* 10 to 100 nM

*Q* Dear colleague, I am looking for the recorded IC50 of the following molecule: "Cc1cnc(Nc2cnn(CC(=O)O)c2)nc1NCc1c(F)ccc(F)c1F"
*A* 10 to 100 nM

*Q* Can you share its IC50? I mean this molecule: "OCCn1cc(Nc2ncc(Cl)c(NCc3cc(Br)cc(F)c3F)n2)cn1"
*A* 100 to 1000 nM

*Q* Quick one: IC50 of "COc1ccc(F)c(CNc2ccnc(Nc3cnn(CC(=O)N[C@H](C)CO)c3)n2)c1F" ?
*A* 10 to 100 nM

*Q* Field request: IC50 | item: "OCCn1cc(Nc2ncc(Cl)c(NCc3ccc(O)cc3)n2)cn1"
*A* 10 to 100 nM

*Q* I would be grateful if you could share the reported IC50 for "Cc1cccc(F)c1CNc1ccnc(Nc2cnn(CC(=O)NC(C)C)c2)n1" .
*A* ≤ 10 nM

*Q* What does the record list as IC50 for "NC(=O)Cn1cc(Nc2ncc(Cl)c(NCc3cccnc3O)n2)cn1" ?
*A* 1000 to 10000 nM

*Q* Given the molecule "COc1ccc(Cl)c(CNc2ccnc(Nc3cnn(C)c3)n2)c1F" , what is its reported IC50?
*A* 10 to 100 nM

*Q* Query (molecule): "O=C(Cn1cc(Nc2ncc(F)c(NCc3c(F)cc(F)cc3F)n2)cn1)NC1CCC1" ; field requested: IC50
*A* 10 to 100 nM
